# target-system: wtp53 (full-length wild-type p53) (Homo sapiens, UniProt P04637 1-393)
# Sequence (P04637 whole entry): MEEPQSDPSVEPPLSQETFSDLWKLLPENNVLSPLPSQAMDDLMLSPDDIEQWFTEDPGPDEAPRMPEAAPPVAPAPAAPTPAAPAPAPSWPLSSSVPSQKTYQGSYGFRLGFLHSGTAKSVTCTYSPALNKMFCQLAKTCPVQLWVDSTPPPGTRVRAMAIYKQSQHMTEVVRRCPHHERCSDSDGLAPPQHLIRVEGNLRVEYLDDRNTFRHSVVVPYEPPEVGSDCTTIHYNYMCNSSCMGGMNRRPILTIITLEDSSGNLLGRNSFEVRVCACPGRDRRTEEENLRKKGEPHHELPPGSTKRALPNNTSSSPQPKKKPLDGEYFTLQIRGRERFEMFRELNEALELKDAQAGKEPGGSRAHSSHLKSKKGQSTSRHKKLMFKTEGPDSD
# protocol-summary: EMSA; 50 mM KCl; EMSA: 5 mM Tris pH 7.6, 0.5 mM EDTA, 0.01% Triton X-100, 50 mM KCl, 0.5 mM DTT, on ice 20 min (30 min for plasmids); oligo EMSA with 50 ng BSA and 2.5-20 ng pBSK/EcoRV competitor
# run-parameters: protein: recombinant; chain copies: 4; label: 5' 32P; blunt
endpoint-label: binding result

>  <binder>
P1-40 (dsDNA) DNA 1: GATCGATAAGAGACATGCCTAGACATGCCTCTTGATATCG DNA 2: CGATATCAAGAGGCATGTCTAGGCATGTCTCTTATCGATC

>  <measurement>
binds

$$$$
>  <binder>
P1-22 (dsDNA) DNA 1: GAGACATGCCTAGACATGCCTC DNA 2: GAGGCATGTCTAGGCATGTCTC

>  <measurement>
binds

$$$$
>  <binder>
P1-30 (dsDNA) DNA 1: GTAAGAGACATGCCTAGACATGCCTCATCG DNA 2: CGATGAGGCATGTCTAGGCATGTCTCTTAC

>  <measurement>
binds

$$$$
>  <binder>
P1-50 (dsDNA) DNA 1: GACGGTATCGATAAGAGACATGCCTAGACATGCCTCTTGATATCGAATTC DNA 2: GAATTCGATATCAAGAGGCATGTCTAGGCATGTCTCTTATCGATACCGTC

>  <measurement>
binds

$$$$
